assayed target: KRas G12D mutant (Homo sapiens, UniProt P01116, G12D)
Construct: fused on or other part: His tag, used for capture on nickel-coated plates
procedure summary: Ras GTP binding domain inhibition assay (Cy3-GTP/Cy5-GTP competition)
condition set: 20 μM; without SOS (Table 7A); read-out: KRas G12D mutant: % inh.
quantity: inhibition at 20 µM

* Cn1ccc(-c2sc3nc(-c4nccn4C)nc(N[C@@H]4CC[C@H](O)C4)c3c2-c2ccccc2)n1 (racemic) [drawing 909] | 0%
* COc1cccc(-c2sc3nc(-c4nccn4C)nc(N[C@@H]4CC[C@H](OC)C4)c3c2C)c1F [drawing 894] | 51 to 75%
* CO[C@H]1CC[C@@H](Nc2nc(-c3nccn3C)nc3sc(-c4cccc5[nH]ncc45)c(-c4ccccc4)c23)C1 [drawing 889] | 51 to 75%
* Cc1c(-c2ccn(C)n2)sc2nc(-c3nccn3C)nc(NCCCS(C)(=O)=O)c12 [drawing 916] | 76 to 100%
* COc1c(O)nc(-c2ccccn2)nc1Nc1ccccc1 [drawing 880] | 26 to 50%
* COc1c(F)cccc1-c1sc2nc(-c3nccn3C)nc(N[C@@H]3CC[C@H](OC)C3)c2c1-c1ccccc1 [drawing 887] | 76 to 100%
* CO[C@H]1CC[C@@H](Nc2nc(-c3nccn3C)nc3sc(C(=O)NC(C)C)c(-c4ccccc4)c23)C1 [drawing 924] | 76 to 100%
* COc1nc(-c2ccccn2)nc2c(-c3ccccn3)csc12 [drawing 913] | 26 to 50%
* Cn1ccc(-c2sc3nc(-c4nccn4C)nc(O)c3c2-c2ccccc2)n1 [drawing 904] | 26 to 50%
* CO[C@H]1C[C@@H](Nc2nc(-c3nccn3C)nc3sccc23)C1 [drawing 903] | 76 to 100%
